Test system: Vero kidney cells
Assay: Cytotoxicity, WST-8 cell viability, non-cancer kidney cells
Format: cell-based
Details: read-out: Kidney cells IC50 Vero; 48 h incubation, mean ± SD (n = 3)
observation.type: IC50 (µM)

smiles.input	experimental.value
Cc1ccc(S(=O)(=O)n2cc(CNCc3ccc(C(=O)NO)cc3)c3ccccc32)cc1	21.4

###

Biological target: hHDAC8 (Homo sapiens)
Assay: biochemical
Format: biochemical
Settings: read-out: hHDAC8 IC50; recombinant human HDAC8
pIC50: −log10 of the molar value.
observation.type: pIC50

smiles.input	experimental.value
O=C(NO)c1ccc(N2CCN(Cc3cnc4ccccc4c3)CC2)cc1	6.52

###

Target: hHDAC8 (Homo sapiens, UniProt Q9BY41)
Sequence (Q9BY41 whole entry): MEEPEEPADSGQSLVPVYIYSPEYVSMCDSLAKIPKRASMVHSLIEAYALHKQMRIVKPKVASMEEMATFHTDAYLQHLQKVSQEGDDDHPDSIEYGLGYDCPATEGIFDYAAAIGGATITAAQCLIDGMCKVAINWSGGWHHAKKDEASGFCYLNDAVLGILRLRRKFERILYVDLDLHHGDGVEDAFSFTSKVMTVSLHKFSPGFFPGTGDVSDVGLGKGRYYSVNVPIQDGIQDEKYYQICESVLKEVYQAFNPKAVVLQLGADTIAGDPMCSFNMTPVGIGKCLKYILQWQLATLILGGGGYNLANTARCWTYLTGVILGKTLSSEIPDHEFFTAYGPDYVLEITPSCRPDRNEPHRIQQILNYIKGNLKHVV
Test: biochemical
Format: biochemical
Conditions: inhibitor at 10 µM
observation.type: hHDAC8 % @10 µM (%)

compound	experimental.value
CN1CCc2c(c3ccccc3n2Cc2ccc(C(=O)NO)cc2)C1 [Tubastatin A, reference compound]	84
Cc1ccc(S(=O)(=O)n2cc(CNc3ccc(C(=O)NO)cc3)c3ccccc32)cc1 [Compound 2d]	98.9
Cc1ccc(S(=O)(=O)n2cc(CNCc3ccc(C(=O)NO)cc3)c3ccccc32)cc1 [Compound 2c]	97.3
Cc1ccc(S(=O)(=O)n2cc(CN3CCN(c4ccc(C(=O)NO)cc4)CC3)c3ccccc32)cc1 [Compound 2e]	87.9

###

Target: hHDAC1 (Homo sapiens)
pIC50: −log10 of the molar value.

smiles.input	pIC50
O=C(NO)c1ccc(CNCc2c[nH]c3ccccc23)cc1	5.35

###

Target: hHDAC6 (Homo sapiens, UniProt Q9UBN7)
Sequence (Q9UBN7 whole entry): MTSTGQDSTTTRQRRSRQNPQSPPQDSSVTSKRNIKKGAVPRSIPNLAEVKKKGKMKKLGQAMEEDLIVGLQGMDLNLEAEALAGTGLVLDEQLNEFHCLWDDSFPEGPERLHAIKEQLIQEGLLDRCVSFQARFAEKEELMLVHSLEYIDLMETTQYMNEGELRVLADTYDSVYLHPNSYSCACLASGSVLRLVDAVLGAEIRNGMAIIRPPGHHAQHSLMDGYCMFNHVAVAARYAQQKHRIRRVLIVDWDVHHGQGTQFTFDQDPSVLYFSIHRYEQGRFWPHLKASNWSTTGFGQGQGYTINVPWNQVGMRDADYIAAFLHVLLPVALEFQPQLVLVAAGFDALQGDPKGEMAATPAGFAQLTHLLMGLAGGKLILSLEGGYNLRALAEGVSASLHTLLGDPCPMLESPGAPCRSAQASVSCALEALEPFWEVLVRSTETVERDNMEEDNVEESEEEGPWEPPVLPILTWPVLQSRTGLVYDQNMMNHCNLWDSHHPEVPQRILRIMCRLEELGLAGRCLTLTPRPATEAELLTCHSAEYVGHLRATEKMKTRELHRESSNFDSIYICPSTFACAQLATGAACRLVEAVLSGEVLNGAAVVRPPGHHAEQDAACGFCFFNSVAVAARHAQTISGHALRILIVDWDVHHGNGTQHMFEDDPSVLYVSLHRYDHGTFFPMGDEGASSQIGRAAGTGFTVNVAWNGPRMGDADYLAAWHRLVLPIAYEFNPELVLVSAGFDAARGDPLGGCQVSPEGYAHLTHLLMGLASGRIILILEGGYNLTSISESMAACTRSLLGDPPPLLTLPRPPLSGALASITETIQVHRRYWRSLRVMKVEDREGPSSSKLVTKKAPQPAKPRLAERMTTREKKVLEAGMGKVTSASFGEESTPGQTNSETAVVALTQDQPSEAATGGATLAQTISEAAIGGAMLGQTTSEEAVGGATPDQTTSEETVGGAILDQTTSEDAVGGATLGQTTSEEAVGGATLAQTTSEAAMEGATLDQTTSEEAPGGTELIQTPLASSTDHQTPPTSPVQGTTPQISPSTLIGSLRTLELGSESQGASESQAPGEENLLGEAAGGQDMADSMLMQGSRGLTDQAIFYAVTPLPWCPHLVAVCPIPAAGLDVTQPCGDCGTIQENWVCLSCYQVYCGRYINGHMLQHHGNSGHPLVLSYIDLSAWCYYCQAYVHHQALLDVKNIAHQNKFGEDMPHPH
Assay: biochemical
Settings: read-out: hHDAC6 IC50; recombinant human HDAC6

smiles.input	tested.on	IC50 [nM]
Cc1ccc(S(=O)(=O)n2cc(CNCc3ccc(C(=O)NO)cc3)c3ccccc32)cc1	hHDAC6 (Homo sapiens, UniProt Q9UBN7)	51
O=C(NO)c1ccc(N2CCN(Cc3cnc4ccccc4c3)CC2)cc1	hHDAC6 (Homo sapiens, UniProt Q9UBN7)	130

###

System: BT-549 (breast carcinoma)
Test: Cytotoxicity, WST-8 cell viability
Format: cell-based, human
Settings: read-out: Cancer cell lines IC50 BT-549; 48 h incubation, mean ± SD (n = 3)
pIC50: −log10 of the molar value.

smiles.input	pIC50
Cc1ccc(S(=O)(=O)n2cc(CNCc3ccc(C(=O)NO)cc3)c3ccccc32)cc1	4.78

###

Biological target: hHDAC8 (Homo sapiens, UniProt Q9BY41)
Experiment: biochemical
Format: biochemical
Conditions: inhibitor at 1 µM

molecule	hHDAC8 % @1 µM, %
Cc1ccc(S(=O)(=O)n2cc(CN3CCN(c4ccc(C(=O)NO)cc4)CC3)c3ccccc32)cc1	26.9
Cc1ccc(S(=O)(=O)n2cc(CNc3ccc(C(=O)NO)cc3)c3ccccc32)cc1	49.2
Cc1ccc(S(=O)(=O)n2cc(CNCc3ccc(C(=O)NO)cc3)c3ccccc32)cc1	65.1
CN1CCc2c(c3ccccc3n2Cc2ccc(C(=O)NO)cc2)C1 [Tubastatin A, reference compound]	46.4

###

Target: hHDAC1 (Homo sapiens, UniProt Q13547)
Sequence (Q13547 whole entry): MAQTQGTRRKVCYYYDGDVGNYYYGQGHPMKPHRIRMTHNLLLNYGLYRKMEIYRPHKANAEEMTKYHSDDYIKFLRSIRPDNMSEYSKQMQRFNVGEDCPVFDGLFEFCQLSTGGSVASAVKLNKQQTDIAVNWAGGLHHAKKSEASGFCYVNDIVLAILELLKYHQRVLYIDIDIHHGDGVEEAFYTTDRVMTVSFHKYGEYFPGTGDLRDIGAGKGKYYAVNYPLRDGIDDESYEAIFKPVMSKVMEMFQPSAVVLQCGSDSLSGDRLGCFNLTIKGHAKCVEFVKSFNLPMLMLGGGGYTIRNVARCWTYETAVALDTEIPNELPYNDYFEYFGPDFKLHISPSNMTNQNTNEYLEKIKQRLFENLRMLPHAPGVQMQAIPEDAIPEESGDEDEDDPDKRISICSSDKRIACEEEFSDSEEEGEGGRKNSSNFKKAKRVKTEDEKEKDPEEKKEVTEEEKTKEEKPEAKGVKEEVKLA
Test: biochemical
Format: biochemical
Conditions: inhibitor at 10 µM
In this section we review reported hHDAC1 % @10 µM values for a set of molecules.
observation.type: hHDAC1 % @10 µM (%)

molecule	experimental.value
Cc1ccc(S(=O)(=O)n2cc(CN3CCN(c4ccc(C(=O)NO)cc4)CC3)c3ccccc32)cc1	67.2
Cc1ccc(S(=O)(=O)n2cc(CNc3ccc(C(=O)NO)cc3)c3ccccc32)cc1	38.9
O=C(NO)c1ccc(N2CCN(Cc3c[nH]c4ccccc34)CC2)cc1	90.6
O=C(NO)c1ccc(N2CCN(Cc3cnc4ccccc4c3)CC2)cc1	79.4
Cc1ccc(S(=O)(=O)n2cc(CNCc3ccc(C(=O)NO)cc3)c3ccccc32)cc1	72.8
CN1CCc2c(c3ccccc3n2Cc2ccc(C(=O)NO)cc2)C1 [Tubastatin A, reference compound]	29.9

Cited source: paper PMC12475083
